MEASUREMENT_DESCRIPTION: Ratio of drug level in Swiss Webster mouse brain to plasma at 5 mg/kg, ip measured after 1 hr by LC-MS/MS analysis
Assay type: ADME, organism-based
EXPERIMENTAL_CONTEXT: read-out: BPR
TEST_READOUT: Kp at 1 h
// return just the number, without any unit appended

>  <STRUCTURE_SMILES_STRING>
O=C(Nc1ccn2cc(-c3ccc(F)c(F)c3)nc2c1)N1CC[C@H](F)C1

>  <TEST_READOUT>
Kp at 1 h

>  <QUANTITATIVE_RESULT>
0.114

$$$$

Now turn to the next molecule.
Input line: Which Kp at 1 h value is on record for `O=C(Nc1cc2nc(-c3ccc(F)c(F)c3)cn2cn1)N1CC[C@H](F)C1` ?
Output line: 0.856

----------
MEASUREMENT_DESCRIPTION: Plasma concentration in BALB/c mouse subcutaneously infected with bioluminescent PpyRE9h expressing Trypanosoma cruzi Tulahuen […] at 50 mg/kg, po twice daily measured immediately before seventh dose
TEST_READOUT: concentration at 0 hr (µM)
State the answer as a number, implicitly in µM.

Input line: Which concentration at 0 hr value is on record for `O=C(Nc1cc2nc(-c3ccc(F)c(F)c3)cn2cn1)N1CC[C@H](F)C1` ?
Output line: 4.8

----------
MEASUREMENT_DESCRIPTION: Solubility of the compound in HCl at pH 2.0 at 50 uM after overnight incubation by LC-MS/MS method
Format: physicochemical
# solubility at 50 µM >= 2 µM gives rule met, anything below gives rule not met

Input line: Determine whether this molecule has solubility at 50 µM no lower than 2 µM: `O=C(Nc1ccn2cc(-c3cccc(F)c3F)nc2c1)N1CC[C@H](F)C1`
Output line: rule met

Input line: Determine whether this molecule has solubility at 50 µM no lower than 2 µM: `Cn1nc(C(C)(C)C)cc1C(=O)Nc1cc2nc(-c3ccc(F)c(F)c3)cn2cn1`
Output line: rule not met

Input line: Determine whether this molecule has solubility at 50 µM no lower than 2 µM: `O=C(Nc1ccn2cc(-c3ccc(F)c(F)c3)nc2c1)N1CC[C@H](F)C1`
Output line: rule met

Input line: Determine whether this molecule has solubility at 50 µM no lower than 2 µM: `O=C(Nc1cc2nc(-c3ccc(F)c(F)c3)cn2cn1)N1CC[C@H](F)C1`
Output line: rule not met

Input line: Determine whether this molecule has solubility at 50 µM no lower than 2 µM: `O=C(Nc1ccn2cc(-c3cccc(F)c3)nc2c1)N1CC[C@H](F)C1`
Output line: rule met

----------
MEASUREMENT_DESCRIPTION: Solubility of the compound in PBS at pH 7.4 at 50 uM after overnight incubation by LC-MS/MS method
Assay type: physicochemical
# solubility at 50 µM >= 6 µM gives Condition met, anything below gives Condition not met

Input line: Determine whether this compound has solubility at 50 µM no lower than 6 µM: `Cn1nc(C(C)(C)C)cc1C(=O)Nc1cc2nc(-c3ccc(F)c(F)c3)cn2cn1`
Output line: Condition not met

Input line: Determine whether this compound has solubility at 50 µM no lower than 6 µM: `O=C(Nc1cc2nc(-c3ccc(F)c(F)c3)cn2cn1)N1CC[C@H](F)C1`
Output line: Condition not met

Input line: Determine whether this compound has solubility at 50 µM no lower than 6 µM: `O=C(Nc1ccn2cc(-c3cccc(F)c3F)nc2c1)N1CC[C@H](F)C1`
Output line: Condition met

Input line: Determine whether this compound has solubility at 50 µM no lower than 6 µM: `O=C(Nc1ccn2cc(-c3cccc(F)c3)nc2c1)N1CC[C@H](F)C1`
Output line: Condition met

Input line: Determine whether this compound has solubility at 50 µM no lower than 6 µM: `O=C(Nc1ccn2cc(-c3ccc(F)c(F)c3)nc2c1)N1CC[C@H](F)C1`
Output line: Condition met

----------
MEASUREMENT_DESCRIPTION: Protein binding in Swiss Webster mouse plasma assessed as drug recovery at 2 uM by LC-MS/MS analysis
Assay type: ADME, cell-free
EXPERIMENTAL_CONTEXT: read-out: Drug recovery
# recovery at 2 µM >= 70% gives True, anything below gives False

>  <MOLECULE>
Cn1nc(C(C)(C)C)cc1C(=O)Nc1cc2nc(-c3ccc(F)c(F)c3)cn2cn1

>  <ANSWER_LABEL>
True

$$$$
>  <MOLECULE>
CC(C)NCC(O)COc1cccc2ccccc12 (configuration not stated) [PROPRANOLOL]

>  <ANSWER_LABEL>
True

$$$$
>  <MOLECULE>
O=C(Nc1cc2nc(-c3ccc(F)c(F)c3)cn2cn1)N1CC[C@H](F)C1

>  <ANSWER_LABEL>
False

$$$$

Input line: Determine whether this molecule has recovery at 2 µM no lower than 70%: `O=C(Nc1ccn2cc(-c3ccc(F)c(F)c3)nc2n1)N1CC[C@H](F)C1`
Output line: False

Input line: Determine whether this molecule has recovery at 2 µM no lower than 70%: `O=C(Nc1ccn2cc(-c3ccc(F)c(F)c3)nc2c1)N1CC[C@H](F)C1`
Output line: False

----------
MEASUREMENT_DESCRIPTION: Plasma concentration in Swiss Webster mouse at 5 mg/kg, ip after 1 hr by LC-MS/MS analysis
Format: ADME, organism-based
TEST_READOUT: concentration at 1 h (µM)
State the answer as a number, implicitly in µM.

Input line: Which concentration at 1 h value is on record for `O=C(Nc1cc2nc(-c3ccc(F)c(F)c3)cn2cn1)N1CC[C@H](F)C1` ?
Output line: 1.31

Input line: Which concentration at 1 h value is on record for `O=C(Nc1ccn2cc(-c3ccc(F)c(F)c3)nc2c1)N1CC[C@H](F)C1` ?
Output line: 4.84

----------
MEASUREMENT_DESCRIPTION: AUC in Swiss Webster mouse at 50 mg/kg, po by LC-MS/MS analysis
Type: ADME, organism-based
EXPERIMENTAL_CONTEXT: in vivo
TEST_READOUT: AUC (µM·h)
State the answer as a number, implicitly in µM·h.

Input line: Which AUC value is on record for `O=C(Nc1cc2nc(-c3ccc(F)c(F)c3)cn2cn1)N1CC[C@H](F)C1` ?
Output line: 59.8

----------
MEASUREMENT_DESCRIPTION: Half life in mouse liver microsomes by LC-MS/MS method
Type: ADME, microsome
Entries and their half-life values follow.
State the answer as a number, implicitly in h.

Worked examples, 2 molecules total:
>  <STRUCTURE_SMILES_STRING>
Cn1nc(C(C)(C)C)cc1C(=O)Nc1cc2nc(-c3ccc(F)c(F)c3)cn2cn1

>  <half-life / h>
1

$$$$
>  <STRUCTURE_SMILES_STRING>
C[C@]12CC[C@H]3[C@@H](CCC4=CC(=O)CC[C@@]43C)[C@@H]1CC[C@@H]2O

>  <half-life / h>
0.0947

$$$$

Now turn to the next molecule.
Input line: Which half-life value is on record for `COc1ccc2c(c1)[C@]13CCCC[C@@H]1[C@H](C2)N(C)CC3` ?
Output line: 0.0185

----------
MEASUREMENT_DESCRIPTION: Plasma concentration in BALB/c mouse subcutaneously infected with bioluminescent PpyRE9h expressing Trypanosoma cruzi Tulahuen tryptomastigotes at 50 mg/kg, po twice daily measured 6 hrs post seventh dose
Type: ADME, organism-based
TEST_READOUT: concentration at 6 h (µM)
State the answer as a number, implicitly in µM.

Input line: Which concentration at 6 h value is on record for `O=C(Nc1cc2nc(-c3ccc(F)c(F)c3)cn2cn1)N1CC[C@H](F)C1` ?
Output line: 5.8

----------
Test system: Trypanosoma brucei brucei
MEASUREMENT_DESCRIPTION: Antitrypanosomal activity against Trypanosoma brucei brucei BF427 after 48 hrs by Alamar Blue-based assay
Format: functional
EXPERIMENTAL_CONTEXT: BF427, 48 h
pEC50: −log10 of the molar value.
Entries and their pEC50 values follow.

Worked examples, 2 compounds total:
>  <STRUCTURE_SMILES_STRING>
O=C(Nc1ccn2cc(-c3ccc(F)c(F)c3)nc2c1)c1cccnc1Cl

>  <TEST_TARGET>
Trypanosoma brucei brucei

>  <pEC50>
< 4.70

$$$$
>  <STRUCTURE_SMILES_STRING>
O=C(Nc1ccn2cc(-c3nccs3)nc2c1)N1CC[C@H](F)C1

>  <TEST_TARGET>
Trypanosoma brucei brucei

>  <pEC50>
< 4.70

$$$$

Now turn to the next compound.
Input line: Which pEC50 value is on record for `O=C(Nc1ccc2nc(-c3ccc(F)c(F)c3)cn2c1)N1CC[C@H](F)C1` ?
Output line: < 4.70
